- target: HIV-1 RT wild-type enzyme (Human immunodeficiency virus type 1 group M subtype B (isolate HXB2) (HIV-1))
- procedure_details: HIV-1 reverse transcriptase inhibitory activity (RT polymerase assay)
- Type: biochemical
- assay_setup: HIV-1 RT wild-type enzyme 83 pM; RNA-dependent DNA polymerase activity; read-out: IC50
pIC50 by entry:
Friendly reminder that pIC50 comes from taking -log10 of the concentration in mol/L.

N#Cc1cc(Cl)cc(Oc2c(C(F)(F)F)ncn(Cc3cc(-c4ccc(Cl)cn4)c(=O)[nH]n3)c2=O)c1 [Example 99]	8.15

The molecule listed as N#Cc1cc(Cl)cc(Oc2c(C(F)(F)F)ncn(Cc3cc(-c4cncc(F)c4)c(=O)[nH]n3)c2=O)c1 [Example 82] shows pIC50 equal to 8.15

Lookup result for N#Cc1cc(Cl)cc(Oc2c(C(F)(F)F)ncn(Cc3cc(C(O)C4CC4)c(=O)[nH]n3)c2=O)c1 (stereo not shown) [Example 17] ; measured pIC50: 6.75

Entry COc1cc(F)cc(-c2cc(Cn3cnc(C(F)(F)F)c(Oc4cc(Cl)cc(C#N)c4)c3=O)n[nH]c2=O)c1 [Example 61] — recorded pIC50 = 7.96
